- Tested on: retinal degeneration mouse model
- Assay Info: Electroretinogram (ERG) in blue LED-induced retinal degeneration mouse model
- Type: in vivo, albino BALB/c mice
- Condition Summary: average of a-wave and b-wave, compound 24 nM, Com. Ex. 4 25 mg/kg, intravitreal
Property Name: Wavelength enhanced multiple compared to normal saline-treated group, Average value

Compound	Recorded Measurement
CN1Cc2c(cccc2-c2ccccc2-c2ccc(CN3CCOCC3)o2)C1=O	1.33
CNC(=O)C1(Cc2ccccc2)CCCN1Cc1ccc(-c2ccccc2-c2cccc3c2CN(C)C3=O)o1 (centres unmarked)	1.33
CNC(=O)C1(C)CN(Cc2ccc(-c3ccccc3-c3cccc4c3CN(C)C4=O)o2)CCC1O (centres unmarked)	1.27
CNC(=O)CC1C(=O)NCCN1Cc1oc(-c2ccccc2-c2cccc3c2CN(C)C3=O)cc1C (centres unmarked)	1.32
CN1Cc2c(cccc2-c2ccccc2-c2ccc(COCN3CCC(F)(F)CC3)o2)C1=O	1.38

* * *

- Target System: BRD2 (BD1) (Homo sapiens)
- Construct: a bromodomain of BRD2 (BD1) and BRD3 (BD1), one of the BRD protein family
- Sequence (P25440 74-180 limits assumed, species assumed): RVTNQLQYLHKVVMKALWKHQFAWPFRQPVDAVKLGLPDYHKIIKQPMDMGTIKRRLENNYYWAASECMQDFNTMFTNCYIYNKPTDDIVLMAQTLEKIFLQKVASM
- Assay Info: Binding inhibitory effect on BRD2 protein (AlphaScreen, GST-BRD2 (BD1) / biotinylated acetyl-histone H4 peptide)
- Condition Summary: 100 nM GST-BRD2 (BD1), 100 nM biotinylated acetyl-histone H4 (Lys5, 8, 12, 16) peptide
Property Name: IC50 (µM)

Molecule	IC50 [µM]
CCC1(C(=O)NC)CCCN(Cc2ccc(-c3ccccc3-c3cccc4c3CN(C)C4=O)o2)C1 (stereo not drawn)	15.2
CN1Cc2c(cccc2-c2ccccc2-c2ccc(CN3CCN(S(C)(=O)=O)CC3)o2)C1=O	16.6
CNC(=O)c1ccc(-c2ccccc2-c2cccc3c2CN(C)C3=O)o1	11.1
CN1Cc2c(cccc2-c2ccccc2-c2ccc(CNCc3ccccc3)o2)C1=O	14
CN1Cc2c(cccc2-c2ccccc2-c2ccc(CN3CCC(Cc4ccc(F)cc4)(C(=O)NCc4ccccc4)CC3)o2)C1=O	16.7
CN1Cc2c(cccc2-c2ccccc2-c2ccc(CN3CCC4(CC3)C(=O)NCC4c3ccc(F)cc3)o2)C1=O (stereo not drawn)	13.7
